The origin of these recorded values is ChEMBL document CHEMBL4513216.

// reported cytotoxicity at 10 µM per item
experiment: Toxicity liver stage against HepG2, at 10uM; format: cell-based; design: test concentration 10 uM, cell line HepG2-A16-CD81EGFP; settings: human, HepG2-A16-CD81EGFP cells; read-out: INHIBITION

MOLECULE: COc1cc(C(=O)O)cc(I)c1OCC(=O)NCCc1ccccc1
cytotoxicity at 10 µM (%): -11.9
//
MOLECULE: COC[C@H]1CCCN1c1nccc(-c2cnn(-c3ccccc3C)c2)n1
cytotoxicity at 10 µM (%): 8.63
//
MOLECULE: Cc1ccc(NC(=O)N2CCOC(C)C2)cc1Cl (stereo unspecified)
cytotoxicity at 10 µM (%): -6.78
//
MOLECULE: CN(C)C(=O)CC1CC2(CCN(CC3CC3)CC2)Oc2ccccc21 (stereo unspecified)
cytotoxicity at 10 µM (%): -3.51
//
MOLECULE: O=C(CNC1(CCO)CCOCC1)Nc1ccc(F)cc1F
cytotoxicity at 10 µM (%): -41.6
//
MOLECULE: COCc1nc2n(n1)CCCC2Nc1nc(C(C)C)ns1 (stereo unspecified)
cytotoxicity at 10 µM (%): 5.6
//
MOLECULE: Cc1nc2c(c(C)c1CC(=O)NCc1cccs1)c(=O)[nH]n2C
cytotoxicity at 10 µM (%): -34.2
//
MOLECULE: Cc1cccc(OCCC(=O)N(C)CCNS(C)(=O)=O)c1C
cytotoxicity at 10 µM (%): 3.35
//
MOLECULE: Cc1noc(C)c1CN1CCO[C@H]2CN(C(=O)C3CCOCC3)C[C@H]21
cytotoxicity at 10 µM (%): 0.845
//
MOLECULE: Cc1ccc(-c2cc(N)c(=O)n(CC(=O)NCC3CC3)n2)s1
cytotoxicity at 10 µM (%): 10.3
//
MOLECULE: CCC(=O)N1CCC(Oc2ccc(C(=O)NCCN(C)C)cc2Cl)CC1
cytotoxicity at 10 µM (%): 4.12

* * *

assay: Toxicity liver stage against HepG2, at 10uM; format: cell-based; design: test concentration 10 uM, cell line HepG2-A16-CD81EGFP; conditions: human, HepG2-A16-CD81EGFP cells; read-out: INHIBITION
ENDPOINT: cytotoxicity at 10 µM (%)

COMPOUND: O=C(NCc1nncn1-c1ccccc1)C1CC(=O)N(CC2CC2)C1 (stereo not drawn)
ENDPOINT: cytotoxicity at 10 µM
READING UNIT: %
READOUT NUMBER: -2.97
--
COMPOUND: CC(=O)c1ccc(NC(=O)c2ccc3c(c2)C2(CCCCC2)CN3)cc1
ENDPOINT: cytotoxicity at 10 µM
READING UNIT: %
READOUT NUMBER: -108
--
COMPOUND: CCCOc1ccc(C2SCC(=O)Nc3c2c(=O)[nH]n3C(C)C)cc1 (stereo not drawn)
ENDPOINT: cytotoxicity at 10 µM
READING UNIT: %
READOUT NUMBER: 5.95
--
COMPOUND: Cc1ccsc1CN(CCN(C)C)C(=O)c1ccccc1C#N
ENDPOINT: cytotoxicity at 10 µM
READING UNIT: %
READOUT NUMBER: -119
--
COMPOUND: Cc1ccc(-c2noc([C@@H]3C[C@H](NC(=O)NC(C)C)CN3C)n2)cc1
ENDPOINT: cytotoxicity at 10 µM
READING UNIT: %
READOUT NUMBER: 3.31
--
COMPOUND: O=C(NCCC1CCN(CC(F)(F)F)CC1)C1CCOC1 (stereo not drawn)
ENDPOINT: cytotoxicity at 10 µM
READING UNIT: %
READOUT NUMBER: 5.69
--
COMPOUND: Cc1nnc(CN(C)C2CCN(Cc3nnc(C4CCC4)o3)C2)n1C (stereo not drawn)
ENDPOINT: cytotoxicity at 10 µM
READING UNIT: %
READOUT NUMBER: -8.15
--
COMPOUND: Cc1cc(C2CCCN2CCCS(=O)(=O)c2ccccc2)no1 (stereo not drawn)
ENDPOINT: cytotoxicity at 10 µM
READING UNIT: %
READOUT NUMBER: -8.83
--
COMPOUND: COc1ccccc1CCN1CCCC(CN(C)Cc2ccc(C)o2)C1 (stereo not drawn)
ENDPOINT: cytotoxicity at 10 µM
READING UNIT: %
READOUT NUMBER: -0.813
--
COMPOUND: O=C(c1ccc2[nH]c(=O)[nH]c2c1)N1CCC(Nc2cccnn2)CC1
ENDPOINT: cytotoxicity at 10 µM
READING UNIT: %
READOUT NUMBER: 0.00528
--
COMPOUND: Cc1nc2cc(=O)[nH]n2c(C)c1CC(=O)NC(C)C
ENDPOINT: cytotoxicity at 10 µM
READING UNIT: %
READOUT NUMBER: 11.3
--
COMPOUND: C/C(NC(=O)c1ccco1)=C1/C(=O)C[C@@H]2[C@H]1C2(C)C
ENDPOINT: cytotoxicity at 10 µM
READING UNIT: %
READOUT NUMBER: 2.41
--
COMPOUND: O=C(N[C@@H]1CN(c2ncc(F)cn2)[C@@H]2COC[C@@H]21)c1cscn1
ENDPOINT: cytotoxicity at 10 µM
READING UNIT: %
READOUT NUMBER: -139
--
COMPOUND: Cc1ccc(CN(C)CC(=O)NC2(C)CCS(=O)(=O)C2)cc1 (stereo not drawn)
ENDPOINT: cytotoxicity at 10 µM
READING UNIT: %
READOUT NUMBER: 5.05
--
COMPOUND: FC(F)(F)COCCN1CCc2cncnc2C1
ENDPOINT: cytotoxicity at 10 µM
READING UNIT: %
READOUT NUMBER: -2.67
--
COMPOUND: CC(C)CC(C)NCc1cccnc1N1CCOCC1 (stereo not drawn)
ENDPOINT: cytotoxicity at 10 µM
READING UNIT: %
READOUT NUMBER: -4.22
--
COMPOUND: Cc1cc(C(=O)N(C)Cc2cnn(C)c2C)n(C)n1
ENDPOINT: cytotoxicity at 10 µM
READING UNIT: %
READOUT NUMBER: 8.19
--
COMPOUND: CCCN(C)c1ccc(C(=O)NCc2ccnc(C)n2)cc1
ENDPOINT: cytotoxicity at 10 µM
READING UNIT: %
READOUT NUMBER: 6.6
--
COMPOUND: Cc1cc(C(=O)N2CCC(CCC(=O)NCCN(C)C)CC2)ccc1O
ENDPOINT: cytotoxicity at 10 µM
READING UNIT: %
READOUT NUMBER: 5.38
--
COMPOUND: O=C(O)c1ccc(COc2cccc(Cl)c2)s1
ENDPOINT: cytotoxicity at 10 µM
READING UNIT: %
READOUT NUMBER: 8.96
--
COMPOUND: C[C@@H]1C[C@H](C(F)(F)F)n2nc(C3CCN(S(=O)(=O)N(C)C)CC3)cc2N1
ENDPOINT: cytotoxicity at 10 µM
READING UNIT: %
READOUT NUMBER: -17.9
--
COMPOUND: O=C(c1ccc(O)cc1)N1C[C@@H]2CCN(c3cccnc3)C[C@@H]2C1
ENDPOINT: cytotoxicity at 10 µM
READING UNIT: %
READOUT NUMBER: -50.9
--
COMPOUND: CSCc1cccc(S(=O)(=O)N2CCCC2)c1
ENDPOINT: cytotoxicity at 10 µM
READING UNIT: %
READOUT NUMBER: 8.49

* * *

// reported cytotoxicity at 10 µM per item
experiment: Toxicity liver stage against HepG2, at 10uM; format: cell-based; design: test concentration 10 uM, cell line HepG2-A16-CD81EGFP; settings: human, HepG2-A16-CD81EGFP cells; read-out: INHIBITION

COMPOUND: CNC(=O)C1CN(C)CCN(CCCOc2ccccc2F)C1 (configuration not stated)
cytotoxicity at 10 µM: -1%

COMPOUND: CC(O)c1cccc(N2CCC3(CCC(=O)N(C4CCCC4)C3)CC2)n1 (configuration not stated)
cytotoxicity at 10 µM: -3.56%

COMPOUND: CN(C)C(CNCc1nc(-c2ccsc2)no1)c1cccc(F)c1 (configuration not stated)
cytotoxicity at 10 µM: 12.9%

COMPOUND: Cc1cccc(C(C)CNC(=O)N2CCOCC3(CCOCC3)C2)c1 (configuration not stated)
cytotoxicity at 10 µM: 8.84%

COMPOUND: CC(=O)N1CCCC(c2ccc(C(N)=O)cn2)C1 (configuration not stated)
cytotoxicity at 10 µM: 5.07%

COMPOUND: O=C(NCc1ccc(F)cc1)NCC(O)(c1cccs1)C1CC1 (configuration not stated)
cytotoxicity at 10 µM: -1.13%

COMPOUND: CCc1ccccc1-n1nnc(C(=O)O)c1-c1ccccn1
cytotoxicity at 10 µM: -6.42%

COMPOUND: CC(C)OCc1noc(C2CCOC2)n1 (configuration not stated)
cytotoxicity at 10 µM: 1.19%

COMPOUND: O=C(CCc1ccsc1)N(Cc1ccccn1)C1CC1
cytotoxicity at 10 µM: -4.87%

COMPOUND: Clc1ccc2oc(C3CCN(Cc4cccnc4)CC3)nc2c1
cytotoxicity at 10 µM: 9.82%

COMPOUND: CN(C)S(=O)(=O)c1ccc(CN2CCCC2c2ccsc2)o1 (configuration not stated)
cytotoxicity at 10 µM: -8.72%

COMPOUND: O=C(CCc1ccccn1)N1CCN(C(=O)CC2CCCCC2)CC1
cytotoxicity at 10 µM: -1.8%
